target: PRMT5 (Homo sapiens); construct: purchased Viva (custom protein); experiment: PRMT5 biochemical IC50 assay with no cofactor; details: PRMT5, no cofactor; read-out: No Cofactor/ rel IC50
Please provide measured IC50 for the entries that follow.

// IC50 lookup, molecule = Cc1cc(NC(=O)C(=O)N2C[C@@H](C)CC[C@@H]2c2ccc3sc(-c4cccnc4)nc3c2)cnc1N (single isomer, unassigned) , result: < 50 nM

// IC50 lookup, molecule = CCc1cc(NC(=O)C(=O)N2C[C@@H](C)CC[C@@H]2c2ccc(N3CC[C@@H]4CN(C)C[C@@H]4C3)cc2)cnc1N (relative stereo) , result: < 50 nM

// IC50 lookup, molecule = C[C@@H]1CC[C@@H](c2ccccc2)N(C(=O)C(=O)Nc2cncc(C(N)=O)c2)[C@@H]1C (racemic) , result: 50 to 500 nM

// IC50 lookup, molecule = Cc1cncc(NC(=O)C(=O)N2C[C@@H](C)CC[C@@H]2c2cccc(C)c2)c1 (single isomer, unassigned) , result: > 500 nM

// IC50 lookup, molecule = CCc1cc(NC(=O)C(=O)N2C[C@@H](C)CC[C@@H]2c2ccc3sc(C4CCCN4C)nc3c2)cnc1N (stereo partly drawn) , result: < 50 nM

// IC50 lookup, molecule = Cc1cc(NC(=O)C(=O)N2C[C@H]3CC[C@H](C3)[C@H]2c2cccs2)cnc1N (single isomer, unassigned) , result: > 500 nM

----------
Please provide measured pIC50 for the entries that follow.
target: PRMT5 (Homo sapiens); construct: purchased Viva (custom protein); test: PRMT5 biochemical IC50 assay with no cofactor; settings: PRMT5, no cofactor; read-out: No Cofactor/rel IC50
pIC50: −log10 of the molar value.

// pIC50 lookup, compound = Cc1c(NC(=O)C(=O)N2C[C@H](C)CC[C@H]2c2ccccc2)cnc(N)c1C (single isomer, unassigned) [Compound 367] , result: < 6.30

// pIC50 lookup, compound = CCc1cc(NC(=O)C(=O)N2CC(C)CCC2c2ccc(N3CCC4C(CCCN4C)C3)cc2)cnc1N (single isomer, unassigned) [Compound 1132] , result: > 7.30

// pIC50 lookup, compound = C[C@@H]1CN(C(=O)C(=O)Nc2cncc(C(N)=O)c2)[C@@H](c2ccccc2)C[C@H]1O (racemic) [Compound 459] , result: 6.30 to 7.30

// pIC50 lookup, compound = C[C@@H]1CC[C@@H](c2ccc3c(c2)OCO3)N(C(=O)C(=O)Nc2cncc(C(N)=O)c2)C1 (racemic) [Compound 270] , result: 6.30 to 7.30

// pIC50 lookup, compound = C[C@@H]1CC[C@@H](c2ccc(N[C@@H]3CCN(C)C3=O)cc2)N(C(=O)C(=O)Nc2cncc(C(N)=O)c2)C1 (racemic) [Compound 430] , result: 6.30 to 7.30

// pIC50 lookup, compound = C[C@@H]1CC[C@@H](c2cncc(F)c2)N(C(=O)C(=O)Nc2cncc(C(N)=O)c2)C1 (racemic) [Compound 248] , result: < 6.30

// pIC50 lookup, compound = CCc1cc(NC(=O)C(=O)N2C[C@@H](C)[C@@H](OC)C[C@@H]2c2cccc(OCCN(C)C)c2)cnc1N (racemic) [Compound 1139] , result: 6.30 to 7.30

// pIC50 lookup, compound = CC(=O)Nc1ccc([C@@H]2CC[C@@H](C)CN2C(=O)C(=O)Nc2cncc(C(N)=O)c2)cn1 (single isomer, unassigned) [Compound 934] , result: 6.30 to 7.30

// pIC50 lookup, compound = NC(=O)c1cncc(NC(=O)C(=O)N2CCC3(CC2)CCS(=O)(=O)CC3)c1 [Compound 195] , result: < 6.30

// pIC50 lookup, compound = C[C@H]1CC[C@H](c2ccc3sc(C(F)(F)F)nc3c2)N(C(=O)C(=O)Nc2cncc(C(N)=O)c2)C1 (single isomer, unassigned) [Compound 1023] , result: > 7.30

// pIC50 lookup, compound = CC(C)c1cc(NC(=O)C(=O)N2C[C@@H](C)CC[C@@H]2c2ccc(F)cc2)cnc1N [Compound 993] , result: > 7.30

// pIC50 lookup, compound = Cc1cc(NC(=O)C(=O)N2C[C@@H](C)CC[C@@H]2c2ccc(-c3nccs3)cc2)cnc1N (single isomer, unassigned) [Compound 820] , result: 6.30 to 7.30

// pIC50 lookup, compound = Cc1cc(NC(=O)C(=O)N2C[C@@H](C)CC[C@@H]2c2ccccc2)cnc1C (single isomer, unassigned) [Compound 258] , result: < 6.30

// pIC50 lookup, compound = CCc1cc(NC(=O)C(=O)N2C[C@@H](C)CC[C@@H]2c2ccc3sc(C4CCN(CCC(F)(F)F)CC4)nc3c2)cnc1N [Compound 1124] , result: > 7.30

// pIC50 lookup, compound = CNc1nc2cc([C@H]3CC[C@H](C)CN3C(=O)C(=O)Nc3cnc(N)c(C)c3)ccc2s1 (single isomer, unassigned) [Compound 852] , result: > 7.30

// pIC50 lookup, compound = CC(=O)N[C@H]1CC[C@@H]([C@@H]2CC[C@@H](C)CN2C(=O)C(=O)Nc2cnc(N)c(C)c2)CC1 (single isomer, unassigned) [Compound 281] , result: < 6.30

// pIC50 lookup, compound = C[C@H]1CC[C@H](c2ccc(N)cc2)N(C(=O)C(=O)Nc2cncc(C(N)=O)c2)C1 (single isomer, unassigned) [Compound 398] , result: < 6.30

// pIC50 lookup, compound = CCc1cc(NC(=O)C(=O)N2C[C@@H](C)CC[C@@H]2c2ccc3nn([C@H]4CCN(C)C4)cc3c2)cnc1N (racemic) [Compound 1091] , result: > 7.30

// pIC50 lookup, compound = CCc1cc(NC(=O)C(=O)N2C[C@@H](C)CC[C@@H]2c2cccc([C@@H]3CCCN(C)C3)c2)cnc1N [Compound 1090] , result: > 7.30

// pIC50 lookup, compound = C[C@H]1CC[C@H](c2ccc(N)nc2)N(C(=O)C(=O)Nc2cncc(C(N)=O)c2)C1 (single isomer, unassigned) [Compound 493] , result: < 6.30

// pIC50 lookup, compound = C[C@H]1CC[C@H](c2ccc3c(c2)C[C@H](C)O3)N(C(=O)C(=O)Nc2cncc(C(N)=O)c2)C1 (single isomer, unassigned) [Compound 376] , result: < 6.30

// pIC50 lookup, compound = NC(=O)c1cncc(NC(=O)C(=O)N2C[C@@H](CO)CC[C@H]2c2ccccc2)c1 (racemic) [Compound 285] , result: < 6.30

// pIC50 lookup, compound = CNc1ccc([C@H]2CC[C@H](C)CN2C(=O)C(=O)Nc2cncc(C(N)=O)c2)cn1 (single isomer, unassigned) [Compound 444] , result: < 6.30

// pIC50 lookup, compound = C[C@@H]1CC[C@@H](c2ccc(-c3cncs3)cc2)N(C(=O)C(=O)Nc2cncc(C(N)=O)c2)C1 (single isomer, unassigned) [Compound 817] , result: < 6.30

// pIC50 lookup, compound = Cc1ccc([C@@H]2CC[C@@H](C)CN2C(=O)C(=O)Nc2cncc(C(N)=O)c2)cc1Cl (single isomer, unassigned) [Compound 485] , result: < 6.30

----------
biological target: PRMT5 (Homo sapiens); construct: purchased Viva (custom protein); test: PRMT5 biochemical IC50 assay with MTA as cofactor; conditions: PRMT5, MTA as cofactor; read-out: MTA IC50
Please provide measured IC50 for the entries that follow.

// IC50 lookup, compound = COc1ncc(NC(=O)C(=O)N2CCCCC2C2CCCC2)cc1C(N)=O (single isomer, unassigned) [Compound 294] , result: < 50 nM

// IC50 lookup, compound = CC(=O)Nc1ccc([C@@H]2CC[C@@H](C)CN2C(=O)C(=O)Nc2cnc(N)c(C)c2)cc1 (single isomer, unassigned) [Compound 527] , result: < 50 nM

// IC50 lookup, compound = CCc1cc(NC(=O)C(=O)N2C[C@@H](C)[C@H](OC(C)C)C[C@@H]2c2ccc3scnc3c2)cnc1N (racemic) [Compound 1343] , result: 50 to 500 nM

// IC50 lookup, compound = Cc1cc([C@@H]2CC[C@@H](C)CN2C(=O)C(=O)Nc2cncc(C(N)=O)c2)ccc1F (single isomer, unassigned) [Compound 307] , result: > 500 nM

// IC50 lookup, compound = CCc1cc(NC(=O)C(=O)N2C[C@@H](C)CC[C@@H]2c2cnc3c(c2)CCC(=O)N3)cnc1N (racemic) [Compound 916] , result: 50 to 500 nM

// IC50 lookup, compound = C[C@@H]1CC[C@@H]([C@@H]2CCC(O)C2)N(C(=O)C(=O)Nc2cncc(C(N)=O)c2)C1 (mixture of isomers) [Compound 517] , result: 50 to 500 nM

----------
Please provide measured IC50 for the entries that follow.
molecular target: PRMT5 (Homo sapiens, UniProt O14744); construct: purchased Viva (custom protein); assay: PRMT5 biochemical IC50 assay with SAM as cofactor; conditions: PRMT5, SAM as cofactor; read-out: SAM IC50
Sequence (O14744 whole entry): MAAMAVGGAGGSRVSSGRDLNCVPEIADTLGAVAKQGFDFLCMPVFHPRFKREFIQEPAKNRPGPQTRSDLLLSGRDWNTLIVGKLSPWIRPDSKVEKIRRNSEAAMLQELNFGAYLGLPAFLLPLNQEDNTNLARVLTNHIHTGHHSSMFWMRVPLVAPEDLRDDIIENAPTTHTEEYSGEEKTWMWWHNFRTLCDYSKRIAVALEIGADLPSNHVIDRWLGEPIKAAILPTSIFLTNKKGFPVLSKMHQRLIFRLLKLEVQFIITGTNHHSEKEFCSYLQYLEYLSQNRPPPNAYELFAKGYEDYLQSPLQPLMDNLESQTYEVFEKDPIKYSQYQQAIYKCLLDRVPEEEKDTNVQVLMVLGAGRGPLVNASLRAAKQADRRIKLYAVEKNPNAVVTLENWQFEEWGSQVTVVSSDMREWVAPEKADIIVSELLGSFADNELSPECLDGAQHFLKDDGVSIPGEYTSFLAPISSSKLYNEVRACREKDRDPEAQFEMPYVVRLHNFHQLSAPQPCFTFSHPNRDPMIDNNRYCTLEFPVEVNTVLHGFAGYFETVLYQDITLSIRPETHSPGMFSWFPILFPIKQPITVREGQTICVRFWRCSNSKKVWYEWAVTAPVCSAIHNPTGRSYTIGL
Sequence (Q9BQA1 whole entry partner): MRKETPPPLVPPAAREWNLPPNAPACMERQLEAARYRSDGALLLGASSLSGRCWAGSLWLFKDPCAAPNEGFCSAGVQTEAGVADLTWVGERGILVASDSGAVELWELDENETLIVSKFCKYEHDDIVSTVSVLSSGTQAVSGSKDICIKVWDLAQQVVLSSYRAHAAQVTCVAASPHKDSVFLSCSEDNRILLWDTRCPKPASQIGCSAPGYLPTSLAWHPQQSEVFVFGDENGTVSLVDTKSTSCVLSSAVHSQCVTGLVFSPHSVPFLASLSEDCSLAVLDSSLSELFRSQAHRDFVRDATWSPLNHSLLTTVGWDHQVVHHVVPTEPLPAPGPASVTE

// IC50 lookup, compound = Cc1ccc([C@@H]2CC[C@@H](C)CN2C(=O)C(=O)Nc2cnc(N)c(C)c2)nc1 (racemic) , result: > 500 nM

// IC50 lookup, compound = C[C@@H]1CC[C@@H](c2cccc(N(C)C)c2)N(C(=O)C(=O)Nc2cncc(C(N)=O)c2)C1 (single isomer, unassigned) , result: 50 to 500 nM

// IC50 lookup, compound = Cc1cc(NC(=O)C(=O)N2CC(C)(C)CCC2c2ccccc2)cnc1N (single isomer, unassigned) [Compound 58] , result: > 500 nM

// IC50 lookup, compound = CCc1cc(NC(=O)C(=O)N2C[C@@H](C)CC[C@@H]2c2ccc3nn([C@@H]4CCCN(C)C4)cc3c2)cnc1N (single isomer, unassigned) , result: 50 to 500 nM

// IC50 lookup, compound = `CCc1cc(NC(=O)C(=O)N2C[C@@H](C)CC[C@@H]2c2ccc3sc(C4(CN(C)C)COC4)nc3c2)cnc1N` , result: 50 to 500 nM

// IC50 lookup, compound = CC(=O)Nc1ccc([C@@H]2CC[C@@H](C)CN2C(=O)C(=O)Nc2cnc(N)c(C)c2)s1 (single isomer, unassigned) , result: 50 to 500 nM

These data points were gathered from patent US11999727B2.
